# SYSTEM_UNDER_TEST: B-Raf kinase (SEQ. ID NO: 2) (Homo sapiens (Human))
# Sequence (P15056 416-766): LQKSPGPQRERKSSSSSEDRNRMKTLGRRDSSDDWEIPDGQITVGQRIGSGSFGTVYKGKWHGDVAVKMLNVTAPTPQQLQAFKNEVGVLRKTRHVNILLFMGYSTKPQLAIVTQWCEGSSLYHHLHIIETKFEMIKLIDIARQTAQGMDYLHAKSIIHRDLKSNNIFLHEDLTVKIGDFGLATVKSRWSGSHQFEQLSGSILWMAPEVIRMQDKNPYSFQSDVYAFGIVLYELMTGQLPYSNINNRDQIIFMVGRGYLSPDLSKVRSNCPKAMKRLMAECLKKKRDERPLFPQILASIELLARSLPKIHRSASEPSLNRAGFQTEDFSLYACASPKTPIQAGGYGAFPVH
# EXPERIMENT_SUMMARY: Biochemical Assay for B-Raf (1)
# ASSAY_CONDITIONS: Table J, assay version (1); read-out: BRAF (1) IC50
REPORTED_METRIC: IC50

Below, each entry is followed by its recorded IC50 result.
[
  {
    "COMPOUND": "COCCNc1cc(-c2cccc(-c3cc(NC(=O)c4ccnc(C(F)(F)F)c4)ccc3C)c2)ncn1 [Example 156]",
    "REPORTED_METRIC": "IC50",
    "RESULT": "100 to 500 nM"
  },
  {
    "COMPOUND": "Cc1ccc(NC(=O)c2ccnc(C(C)(C)C#N)c2)cc1-c1cc(-c2cc(NC(=O)C3CC3)ncn2)cc(C2CC2)c1 [Example 216]",
    "REPORTED_METRIC": "IC50",
    "RESULT": "100 to 500 nM"
  },
  {
    "COMPOUND": "CC(=O)Nc1cc(-c2cc(-c3cc(NC(=O)c4ccnc(C(F)(F)F)c4)ccc3C)cc(=O)n2C)ccn1 [Example 11]",
    "REPORTED_METRIC": "IC50",
    "RESULT": "100 to 500 nM"
  },
  {
    "COMPOUND": "CNC(=O)c1cc(-c2cncc(-c3cc(NC(=O)c4ccnc(C5(C#N)CC5)c4)ccc3C)n2)ccn1 [Example 138]",
    "REPORTED_METRIC": "IC50",
    "RESULT": "≤ 100 nM"
  },
  {
    "COMPOUND": "CC(=O)Nc1cc(-c2cc(-c3cc(NC(=O)c4cccc(C(F)(F)F)c4)cnc3C)ccn2)ccn1 [Example 37]",
    "REPORTED_METRIC": "IC50",
    "RESULT": "≤ 100 nM"
  },
  {
    "COMPOUND": "Cc1ncc(NC(=O)c2ccnc(C(C)(C)C#N)c2)cc1-c1cccc(-c2cc(N)ncn2)c1 [Example 207]",
    "REPORTED_METRIC": "IC50",
    "RESULT": "100 to 500 nM"
  }
]

q: Assign IC50 to the following record: CC(=O)Nc1cc(-c2cc(-c3cc(NC(=O)c4ccnc(C(F)(F)F)c4)ccc3C)nc(N(C)C)n2)ccn1 [Example 41]
a: ≤ 100 nM

q: Please supply the value of reported IC50 for the item CC(=O)Nc1cc(-c2cc(-c3cc(NC(=O)c4ccnc(C(F)(F)F)c4)ccc3C)nn(C)c2=O)ccn1 [Example 34]
a: 1000 to 10000 nM

q: Supply recorded IC50 for Cc1ccc(NC(=O)c2ccnc(C(C)(C)C#N)c2)cc1-c1ccnc(-c2ccnc(NC(=O)CC#N)c2)c1 [Example 63] here.
a: ≤ 100 nM

q: Given the compound CNC(=O)c1cc(-c2cncc(-c3cc(NC(=O)c4ccnc(C(C)(C)C#N)c4)ccc3C)c2)ncn1 [Example 235] , write its reported IC50.
a: 100 to 500 nM

q: Tell me measured IC50 for Cc1ccc(NC(=O)c2ccnc(C(C)(C)C#N)c2)cc1-c1cccc(-c2cc(NC(=O)C3(F)CC3)ncn2)c1 [Example 200] please.
a: 100 to 500 nM

q: Answer with the recorded IC50 for the compound listed here: CO[C@H]1CC[C@H](C(=O)Nc2ccc(C)c(-c3ccnc(-c4ccnc(NC(=O)C5CC5)c4)n3)c2)CC1 [Example 341]
a: 100 to 500 nM

q: Please give measured IC50 of the following entry: CCOc1ncc(-c2cc(NC(=O)c3ccnc(C(C)(C)C#N)c3)ccc2C)cc1-c1ccnc(C(=O)NC)c1 [Example 260]
a: 100 to 500 nM

q: Could you please provide reported IC50 for Cc1cc(F)c(NC(=O)c2ccnc(C(C)(C)C#N)c2)cc1-c1ccnc(-c2ccnc(NC(=O)C3CC3)c2)c1 [Example 76] ? Thanks!
a: ≤ 100 nM
